- measurement target: PLK4 (Homo sapiens, UniProt O00444)
- method summary: PLK4 NanoBRET target engagement assay
- run conditions: HEK293 T cells transfected with PLK4 NanoLuc fusion vector; K-5 tracer; 2 hrs incubation
pIC50: −log10 of the molar value.
metric name: pIC50

>  <molecule smiles>
COCc1nc(-c2nc(N(C)c3c(F)cc(S(C)(=O)=O)cc3F)nc(Nc3cc(C)[nH]n3)c2C2CC2)cn1C

>  <pIC50>
8.10

$$$$

P = Cc1cc(Nc2nc(N(C)c3cc(F)c(S(C)(=O)=O)cc3F)nc(-c3cn(C)nc3C)c2C2CC2)n[nH]1
Q = Cc1cc(Nc2nc(N(C)c3c(F)cc(S(C)(=O)=O)cc3F)nc(-c3cccnn3)c2C2CC2)n[nH]1
R = Cc1cc(Nc2nc(N(C)c3c(F)cc(S(C)(=O)=O)cc3F)nc(-c3cnn([C@H]4C[C@@H](O)C4)c3)c2C2CC2)n[nH]1
Q: Rank the 3 compounds: largest pIC50 first, smallest last. Response field: labels, in requested order.
Ans: R, P, Q

* * *

- measurement target: PLK4 (Homo sapiens, UniProt O00444)
- method summary: PLK4 NanoBRET target engagement assay
- run conditions: HEK293 T cells transfected with PLK4 NanoLuc fusion vector; K-5 tracer; 2 hrs incubation
metric name: IC50 (µM)

Answered examples (2):
>  <compound>
COc1c(Nc2cc(C)[nH]n2)nc(N(C)c2ccc(S(C)(=O)=O)cc2F)nc1-c1ccn(C)n1 [Compound 6]

>  <metric name>
IC50

>  <numeric readout>
0.049

$$$$
>  <compound>
Cc1csc(-c2nc(N(C)c3ccc(S(C)(=O)=O)cc3F)nc(Nc3cc(C)[nH]n3)c2C2CC2)n1 [Compound 45]

>  <metric name>
IC50

>  <numeric readout>
0.14

$$$$

1 = COc1c(Nc2cc(C)[nH]n2)nc(N(C)c2ccc([S+](C)[O-])cc2)nc1-c1cnn(C)c1 (stereo not shown) [Compound 79]
2 = CN(c1nc(Nc2n[nH]c3c2CCC3)c(C2CC2)c(-c2cnn(C)c2)n1)c1c(F)cc(S(C)(=O)=O)cc1F [Compound 285]
3 = Cc1cc(Nc2nc(N(C)c3c(F)cc(C(=O)N4CCOCC4)cc3F)nc(-c3cn(C)cn3)c2C2CC2)n[nH]1 [Compound 356]
4 = Cc1cc(Nc2nc(N(C)c3c(F)cc(S(C)(=O)=O)cc3F)nc(-c3cnc(C)o3)c2C2CC2)n[nH]1 [Compound 156]
5 = COCc1cc(Nc2nc(N(C)c3c(F)cc(S(C)(=O)=O)cc3F)nc(-c3cnn(C)c3)c2C2CC2)n[nH]1 [Compound 341]
Q: Rank ascending by IC50. Put the labels in the order asked and list them.
Ans: 4, 2, 3, 5, 1
(4: 0.011 µM, 2: 0.15 µM, 3: 0.26 µM, 5: 0.42 µM, 1: 2.3 µM)

* * *

- measurement target: PLK4 (Homo sapiens, UniProt O00444)
- method summary: PLK4 NanoBRET target engagement assay
- run conditions: HEK293 T cells transfected with PLK4 NanoLuc fusion vector; K-5 tracer; 2 hrs incubation
pIC50: −log10 of the molar value.
metric name: pIC50

Example molecules with recorded pIC50:
>  <molecule>
CC(=O)N1CCn2cc(-c3nc(N(C)c4c(F)cc(S(C)(=O)=O)cc4F)nc(Nc4cc(C)[nH]n4)c3C3CC3)nc2C1 [Compound 212]

>  <numeric readout>
7.28

$$$$
>  <molecule>
Cc1cc(Nc2nc(N(C)c3c(F)cc(S(C)(=O)=O)cc3F)nc(-c3cnc4cccnn34)c2C2CC2)n[nH]1 [Compound 267]

>  <numeric readout>
8.22

$$$$
>  <molecule>
Cc1cc(Nc2nc(N(C)c3c(F)cc(S(C)(=O)=O)cc3F)nc(-c3cnn(C)c3C(C)(C)O)c2C2CC2)n[nH]1 [Compound 294]

>  <numeric readout>
8.05

$$$$

a = Cc1cc(Nc2nc(N(C)c3c(F)cc(S(C)(=O)=O)cc3F)nc(-c3cc[nH]n3)c2C2CC2)n[nH]1 [Compound 106]
b = Cc1cc(Nc2nc(N(C)c3c(F)cc(S(C)(=O)=O)cc3F)nc(-c3ncn(C)n3)c2C2CC2)n[nH]1 [Compound 215]
c = Cc1cnn(-c2nc(N(C)c3ccc(S(C)(=O)=O)cc3F)nc(Nc3cc(C)[nH]n3)c2C2CC2)c1 [Compound 112]
d = Cc1cc(Nc2nc(N(C)c3c(F)cc(S(C)(=O)=O)cc3F)nc(-c3cnn(C)c3C(=O)N(C)C3CC3)c2C2CC2)n[nH]1 [Compound 333]
Q: Descending sort on pIC50 required. # output: labels, in the requested order
Ans: a, d, b, c
(a: 8.22, d: 7.96, b: 7.16, c: 6.96)

* * *

- measurement target: UniProtKB O00444
- Sequence (O00444 1-970): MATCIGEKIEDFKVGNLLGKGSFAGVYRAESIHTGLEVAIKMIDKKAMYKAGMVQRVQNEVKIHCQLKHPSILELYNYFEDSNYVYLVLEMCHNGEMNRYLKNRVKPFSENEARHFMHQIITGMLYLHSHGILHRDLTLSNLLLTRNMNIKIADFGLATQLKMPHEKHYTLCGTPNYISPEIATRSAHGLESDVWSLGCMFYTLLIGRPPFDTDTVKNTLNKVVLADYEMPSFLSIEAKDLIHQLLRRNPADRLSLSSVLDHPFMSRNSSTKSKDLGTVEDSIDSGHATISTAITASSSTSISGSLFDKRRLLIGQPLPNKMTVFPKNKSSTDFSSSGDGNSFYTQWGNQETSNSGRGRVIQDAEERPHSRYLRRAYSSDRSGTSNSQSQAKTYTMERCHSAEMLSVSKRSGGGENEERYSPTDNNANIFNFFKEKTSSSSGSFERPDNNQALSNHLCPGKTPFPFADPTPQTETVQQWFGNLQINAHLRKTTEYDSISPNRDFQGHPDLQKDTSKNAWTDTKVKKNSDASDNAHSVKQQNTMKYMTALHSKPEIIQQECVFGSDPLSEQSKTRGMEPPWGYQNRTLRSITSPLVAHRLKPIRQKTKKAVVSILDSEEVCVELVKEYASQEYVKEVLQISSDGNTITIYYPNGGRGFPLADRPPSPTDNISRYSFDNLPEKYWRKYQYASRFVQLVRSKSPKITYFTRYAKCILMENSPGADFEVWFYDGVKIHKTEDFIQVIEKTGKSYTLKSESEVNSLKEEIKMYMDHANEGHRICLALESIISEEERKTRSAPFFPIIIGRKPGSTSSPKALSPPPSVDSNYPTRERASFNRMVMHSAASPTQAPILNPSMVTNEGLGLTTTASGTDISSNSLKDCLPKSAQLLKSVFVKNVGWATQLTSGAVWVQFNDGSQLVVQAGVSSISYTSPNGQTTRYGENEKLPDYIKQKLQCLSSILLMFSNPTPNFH
- method summary: PLK4 NanoBRET target engagement assay
- run conditions: HEK293 T cells transfected with PLK4 NanoLuc fusion vector; K-5 tracer; 2 hrs incubation
pIC50: −log10 of the molar value.
metric name: pIC50

>  <compound>
CCCS(=O)(=O)c1ccc(N(C)c2nc(Nc3cc(C)[nH]n3)c(OC)c(-c3cnn(C)c3)n2)cc1 [Compound 51]

>  <pIC50>
6.66

$$$$

P = Cc1cc(Nc2nc(N(C)c3c(F)cc(S(C)(=O)=O)cc3F)nc(C(N)=O)c2C2CC2)n[nH]1 [Compound 179]
Q = Cc1cc(Nc2nc(N(C)c3c(F)cc(S(C)(=O)=O)cc3F)nc(-c3cc4n(C)c(=O)ccn4n3)c2C2CC2)n[nH]1 [Compound 245]
Q: Two entries are listed, P and Q . Which one carries the higher pIC50? // respond with label for picked entry
Ans: Q

a = Cc1cc(Nc2nc(N(C)c3c(F)cc(S(C)(=O)=O)cc3F)nc(-c3cnn(C)c3C(=O)N3CC(F)(F)C3)c2C2CC2)n[nH]1 [Compound 264]
b = CN(c1nc(Nc2cc(C3CC3)[nH]n2)c(C2CC2)c(-c2cn3c(n2)COCC3)n1)c1c(F)cc(S(C)(=O)=O)cc1F [Compound 273]
c = Cc1cc(Nc2nc(N(C)c3c(F)cc(C4(C#N)CC4)cc3F)nc(-c3cn(C)cn3)c2C2CC2)n[nH]1 [Compound 362]
d = Cc1cc(Nc2nc(N(C)c3c(F)cc(S(C)(=O)=O)cc3F)nc(-c3cnn4c3COCC4)c2C2CC2)n[nH]1 [Compound 182]
Q: Which order do these items take when sorted by rising pIC50? List them. Answer by listing the labels in the requested order.
Ans: a, d, c, b
(a: 7.60, d: 7.96, c: 8.40, b: 8.70)

A = COCc1cc(-c2nc(N(C)c3c(F)cc(S(C)(=O)=O)cc3F)nc(Nc3cc(C)[nH]n3)c2C2CC2)nn1C [Compound 166]
B = Cc1cc(Nc2nc(N(C)c3c(F)cc(S(C)(=O)=O)cc3F)nc(-c3cnn(CCO)c3)c2C2CC2)n[nH]1 [Compound 141]
C = Cc1cc(Nc2nc(N(C)c3c(F)cc(S(C)(=O)=O)cc3F)nc(-c3cnc4ccc(F)cn34)c2C2CC2)n[nH]1 [Compound 310]
Q: Please order the records by their reported pIC50, lowest number first. Dear reader, please state the labels in the requested order.
Ans: C, B, A
(C: 7.51, B: 8.05, A: 8.40)

1 = Cc1cc(Nc2nc(N(C)c3c(F)cc(S(C)(=O)=O)c(C)c3F)nc(-c3cnn(C)c3)c2C2CC2)n[nH]1 [Compound 114]
2 = Cc1cc(Nc2nc(N(C)c3c(F)cc(S(C)(=O)=O)cc3F)nc(N3CCO[C@@H](C(F)(F)F)C3)c2C2CC2)n[nH]1 [Compound 300]
Q: Please tell me which of the two, 1 or 2 , has the higher reported pIC50 value. Mark your selection by writing its label.
Ans: 1
